# reported SPOT intensity; entries follow
# tested_on: T1, Hof1, Q05080
# T1 sequence (Q05080 590-669, looked up): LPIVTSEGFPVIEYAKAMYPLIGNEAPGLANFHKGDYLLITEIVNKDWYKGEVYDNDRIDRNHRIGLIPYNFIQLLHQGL
# assay_explanation: SPOT array
# condition_context: median of control spots 4086

Take a look at these entries with their results.
- VPPPMQPPPIESSNL: 0
- IFLRISINFPLNYPN: 15
- QTMRQAPKRPDADVA: 0
- LYEAMPPTLPHRDWK: 3
- HVRRSILALPLGVLL: 0
- TPRLSLPRLPNKHHW: 1600

Field: next binder
The binder KRKRRLPVSEDTNTK showed SPOT intensity equal to 0

// provenance: paper PMC2756588
